Recorded values, source PubChem BioAssay.

- target.desc: Torsin-1A-interacting protein 2 (Homo sapiens)
- assay: LULL1 binders on small-molecule microarray, primary screen, cell lysate, human LULL1 lysate, 635/667 nm fluorescence (AID 1092);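 also: probe is lysate of COS7 cells overexpressing human LULL1; score merges per-feature 667 nm fluorescence with signal-to-noise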
- assay.conditions: hLULL1 lysate binding, 635 nm fluorescence, higher = more signal
Kindly supply the reported composite z-score values for the records listed here.
Answers are plain numbers.

Worked examples follow.
C#CCCCON=C1C[C@@H](O)[C@@H](O)[C@@H]2[C@@H]3C(=O)N(Cc4ccccc4)C(=O)[C@@H]3CC[C@H]12 | -0.172
CCOC(=O)[C@H](CC(C)C)NC(=O)CCC1CC(OC(=O)NCCc2ccc(F)cc2)CC2(CCCC(COC(=O)NCc3ccccc3)O2)O1 (stereo not given in full) | 2.24
C#CCCCON=C1C[C@@H](O)[C@@H](O)[C@@H]2[C@@H]3C(=O)N(CCC(=O)OCC)C(=O)[C@@H]3CC[C@@H]12 | 0.654
COc1ccccc1CN1C(=O)c2ccccc2[C@@H](C(=O)NCC(F)(F)F)[C@@H]1c1ccc(CO)cc1 | 2.37
CO[C@H]1COC(=O)[C@H](C)NC(=O)[C@@H](C)COC(=O)CC=C[C@@H]1C | -0.498
CC(CCN1CCc2nc(-c3ccccc3)c(-c3ccccc3)cc2C1)=NO[C@@H](C)c1cn([C@H](CO)Cc2ccccc2)nn1 | 0.272
NC(=O)NCC#Cc1ccc2c(c1)[C@]1(C(=O)N2)[C@H](c2ccc(O)cc2)N2[C@H](c3ccccc3)[C@H](c3ccccc3)OC(=O)[C@H]2[C@@H]1C(=O)N1CCCCCCC1 | 1.55
CC(C)=CCCC(C)=CCON=C1[C@H]2CCn3c(=O)n(Cc4cc5c(cc4Cl)OCO5)c(=O)n3[C@H]2[C@H](O)[C@@H]2O[C@H]12 | -0.658

Batch request: composite z-score for each of the following compounds.
1. O[C@@H](Cc1ccccc1)[C@H]1C2C=CCCC(c3ccccc3)=C2CN1Cc1cccc(Cl)c1 (stereo not given in full)
2. O=C1[C@H]2[C@H]3[C@H](O)[C@H](O)CC(=NO[C@@H]4O[C@H](CO)[C@@H](O)[C@H](O)[C@H]4O)[C@H]3CC[C@H]2C(=O)N1Cc1ccccc1
3. CO[C@H]1COC(=O)[C@@H]2CCCN2C(=O)CC=C[C@@H](C)[C@H](OC)COC(=O)CC=C[C@@H]1C
4. COCCOC(=O)N1C(=O)[C@@]2(c3cc(C#Cc4ccc(OC)cc4)ccc31)[C@H](c1ccc(O)cc1)N1[C@H](c3ccccc3)[C@H](c3ccccc3)OC(=O)[C@H]1[C@@H]2C(N)=O

Outgoing:
[1.73, 0.903, -0.361, 2.93]

Batch request: composite z-score for each of the following compounds.
1. COC(=O)C1=CCC(c2cccc(Cl)c2)O1 (stereo not given)
2. C=COC[C@H]1CN2[C@@H](CC[C@@H](C)[C@@H]2c2ccc(Br)cc2)C(=O)O1
3. CC(C)=C1C(=O)C(c2ccccc2)=C2CN3C(=O)N(CCc4ccccc4)C(=O)[C@]3(Cc3ccc(F)cc3)[C@H]21
4. CCN1C(=O)[C@H]2[C@H]3[C@H](O)C=CC(=O)[C@@H]3CC[C@H]2C1=O
5. CCCCCN1CC=CC23O[C@@H]4C=CCOC(=O)[C@@H]4[C@H]2C(=O)N(C(CO)C(C)C)[C@@H]3C1=O (stereo not given in full)
6. COc1ccc(CCNC(=O)[C@@H]2c3ccccc3C(=O)N(c3ccc(C)cn3)[C@H]2c2ccc(CO)cc2)cc1
7. C[C@H]1Cc2c(-c3ccccc3)nc3c(c2CO1)CN(CCOc1ccccc1)CC3

Outgoing:
1: 1.82; 2: 1.99; 3: 2.04; 4: 0.0819; 5: -1.52; 6: 3.23; 7: 2.3

Batch request: composite z-score for each of the following compounds.
1. COC(=O)[C@H](C)NC(=O)CCC1CC(OC(=O)NCc2ccc3c(c2)OCO3)CC2(CCCC(COC(=O)NCCOc3ccccc3)O2)O1 (stereo not given in full)
2. CO[C@@H]1COC(=O)[C@@H]2CCCN2C(=O)[C@@H](C)COC(=O)[C@H](COCc2ccccc2)NC(=O)CC=C[C@H]1C
3. CCCNC(=O)[C@@H]1c2ccccc2C(=O)N(c2ccc(C)cn2)[C@H]1c1ccc(CO)cc1
4. C[N+](C)(C)CCCCCCNC(=O)[C@@H]1C[C@@H]2C(=O)N3CCC[C@H]3C(=O)N2[C@@H]1c1cccc(OCCO)c1
5. CS(=O)(=O)CCOC(=O)C1=CC(CCCO)=CC(c2cccs2)N(Cc2cccc(OC(F)(F)F)c2)C=C1C(=O)OCCS(C)(=O)=O (stereo not given)

Outgoing:
[1.57, 0.445, 0.553, 3.14, 2.17]

* * *

- assay: E. coli growth modulation, two-sided OD650, primary screen, E. coli filamentation project, strain DRC41, 24 h (AID 1093);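 also: MC1000 strain lacking acrAB efflux and sulA so SOS filamentation is blocked; test concentration not given here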
- assay.conditions: OD650, 24 h, higher = more signal, called active from +8 up or from −8 down
Kindly supply the reported z-score values for the records listed here.
Give bare numbers.

Worked examples follow.
CC(C)(C)OC(=O)CC[C@]1(C(=O)NCc2ccccc2)N=C(c2ccc(OCCCO)cc2)O[C@H]1c1ccccc1 | 0.0596
O=C1CCCC=C1C(O)CCOCc1ccccc1 (centres undefined) | -0.546
CC[C@@H](c1ccccc1)n1c(=O)n2n(c1=O)[C@H]1[C@H](O)[C@@H]3O[C@@H]3C(=NOCC=C(C)CCC=C(C)C)[C@H]1CC2 | -0.327

Now consider the entry below.
Incoming: Which z-score is reported for this molecule? COCCOC(=O)N1C(=O)[C@@]2(c3cc(C#CC4(O)CCCCCC4)ccc31)[C@H](C(=O)N1CCN(c3ncccn3)CC1)[C@H]1C(=O)O[C@H](c3ccccc3)[C@H](c3ccccc3)N1[C@@H]2c1ccc(OCCO)cc1
Outgoing: 2.25

* * *

- target.desc: Follistatin (Homo sapiens)
- assay: follistatin binders on small-molecule microarrays, primary screen, biochemical, small-molecule microarray, 635/667 nm fluorescence (AID 1132)
- assay.conditions: FST binding, 635 nm fluorescence, higher = more signal
endpoint.name: composite z-score
Numbers only.

Worked examples follow.
COC(=O)[C@@H]1CC[C@H](C)[C@@H](c2ccc(C)cc2)N1C(=O)c1ccc(C=NOC(C)CN2CCCCc3nc(C)c(C)cc32)cc1 (stereo partly drawn) | 0.114
CCCC[C@@H]1C[C@H]1[C@@H](NS(=O)(=O)c1cccc2cccnc12)c1ccc(-c2ccccc2)cc1 | 0.0634
CC(C)(C)OC(=O)CC[C@]1(C(N)=O)COC(c2ccc(OCCCO)cc2)=N1 | 1.1
CO[C@@H]1COC(=O)[C@H](C)NC(=O)[C@@H](C)COC(=O)CCC[C@H]1C | 0.775
C=CCOC(=O)[C@H]1[C@@H]2C(=O)O[C@@H](c3ccccc3)[C@@H](c3ccccc3)N2[C@@H](c2ccc(OCCOC(=O)[C@H]3C[C@H]4C(=O)N5CCC[C@H]5C(=O)N4[C@H]3c3cccc(OCCO)c3)cc2)[C@]12C(=O)Nc1ccc(I)cc12 | 1.46

Batch request: composite z-score for each of the following molecules.
1. C=CC[C@@H]1C=C[C@H](ON=C[C@@H](OC)[C@H](C)C=CCC(=O)OC)[C@@H](CO)O1
2. O=C1[C@H]2[C@H]3[C@H](O)[C@H](O)CC(=NO[C@@H]4O[C@H](CO)[C@@H](O)[C@H](O)[C@H]4O)[C@@H]3CC[C@H]2C(=O)N1Cc1ccc2c(c1)OCO2
3. CCOC(=O)[C@H](CC(C)C)NC(=O)CCC1CC(OC(=O)NCc2cccc3ccccc23)CC2(CCCC(COC(=O)NCCN3CCOCC3)O2)O1 (stereo partly drawn)
4. COC(=O)[C@@H]1CC[C@H](C)[C@@H](c2ccc(C)cc2)N1C(=O)c1ccc(C=NOC[C@@H](O)COCc2ccco2)cc1
5. CCN1C(=O)[C@H]2[C@H]3[C@H](O)[C@H](O)CC(=NOCc4ccccc4)[C@H]3CC[C@H]2C1=O
6. CCc1cc2c(nc1CC)CCN(CCC(C)=NO[C@@H](C)c1cc(-c3c(C)cc(C)cc3C)no1)C2
7. CC(C)=NOCc1cccc(-c2cc(-c3ccccc3)no2)c1
8. CCOC(=O)CCN1C(=O)[C@H]2[C@H]3[C@H](O)[C@H](O)CC(=NOCc4ccccc4)[C@@H]3CC[C@H]2C1=O

Outgoing:
1: 0.234; 2: 0.449; 3: 0.68; 4: -0.526; 5: 0.213; 6: -0.265; 7: 0.973; 8: 0.722

Batch request: composite z-score for each of the following molecules.
1. Cc1cc2c(nc1C)CCCN2CC(C)ON=C1[C@H]2CCn3c(=O)n(-c4ccccc4)c(=O)n3[C@H]2[C@H](O)[C@@H]2O[C@H]12 (stereo partly drawn)
2. C#C[C@@H](CC)O[Si](C#Cc1ccc(Oc2ccccc2)cc1)(C(C)C)C(C)C
3. COC(=O)[C@]1(CO)N=C(c2ccc(OCCCO)cc2)O[C@@H]1c1ccccc1N=[N+]=[N-]
4. C=CCOC(=O)[C@H]1[C@@H]2C(=O)O[C@@H](c3ccccc3)[C@@H](c3ccccc3)N2[C@@H](c2ccc(OCCOC(=O)[C@H]3C[C@H]4C(=O)N[C@@H](Cc5ccccc5)C(=O)N4[C@H]3c3ccc(O)cc3)cc2)[C@]12C(=O)Nc1ccccc12
5. COC(=O)[C@@]1(Cc2ccc(F)cc2)[C@@H]2C(=CC(=O)[C@H]2CC(=O)C(=O)N(C)C)CN1C(=O)c1ccccc1
6. CCCC=C(CCC)[C@@H](NC(=O)c1ccc(-c2ccccc2)cc1)c1ccc(C(=O)OC)cc1
7. CCOC(=O)CCN1C(=O)[C@H]2[C@H]3[C@H](O)[C@H](O)CC(=NOC[C@@H](O)COCc4ccco4)[C@@H]3CC[C@H]2C1=O
8. O=C1[C@H]2[C@H]3[C@H](O)[C@H](O)CC(=NOC[C@@H](O)COCc4ccco4)[C@@H]3CC[C@H]2C(=O)N1c1ccc(F)cc1F

Outgoing:
1. 0.687
2. 0.395
3. 1.43
4. 1.46
5. 0.635
6. 0.142
7. -0.977
8. 0.532

Batch request: composite z-score for each of the following molecules.
1. C[C@@H]1C=CCC(=O)OC[C@H](C)C(=O)N[C@@H](C)C(=O)OC1
2. CC(C)(C)OC(=O)CC[C@]1(C(=O)NCc2ccccc2)N=C(c2ccc(OCCCO)cc2)O[C@H]1c1ccccc1

Outgoing:
1: 0.302; 2: 0.362

Batch request: composite z-score for each of the following molecules.
1. COC(=O)[C@H](C)NC(=O)CCC1CC(OC(=O)NCCc2ccc(F)cc2)CC2(CCCC(COC(=O)NCC(c3ccccc3)c3ccccc3)O2)O1 (stereo partly drawn)
2. O=C1[C@H]2[C@H]3[C@H](O)[C@H](O)CC(=NOC[C@@H](O)COCc4ccco4)[C@H]3CC[C@H]2C(=O)N1c1cccc(Oc2ccccc2)c1
3. CC1CC/C=C\[C@H]2OC34C=CCN(C(C)C)C(=O)[C@H]3N(CCCO)C(=O)[C@@H]4C2C(=O)O1 (stereo partly drawn)

Outgoing:
1. 0.342
2. -0.924
3. -1.07

Batch request: composite z-score for each of the following molecules.
1. COc1ccc(O[C@H]2C=C[C@@H](c3ccccc3)O[C@@H]2COC(=O)CCC(C)=NOCC[C@@H]2C=C[C@H](OC(C)=O)[C@@H](COC(C)=O)O2)cc1
2. CC(CCN1CCc2nc(-c3ccccc3)c(-c3ccccc3)cc2C1)=NO[C@@H](C)c1cn([C@H](CO)Cc2ccccc2)nn1

Outgoing:
[0.612, 0.408]
